Reference source: patent US20090030086A1

- Tested on: S. aureus ATCC 29213
- experiment: Supplemented disc diffusion assay
- Assay type: cell-based, Staphylococcus aureus
- condition.details: S. aureus ATCC 29213; Tween 80 at 1% v/v; 200 μg per disc (thymoquinone 50 μg, 2,6-dimethoxy-p-benzoquinone 100 μg)
Lab note: class by DDA + lipid, see zone 1 (below 10 mm), zone 2 (10 mm to below 20 mm), zone 3 (20 mm or more)

- molecule: "CCCCCCOc1cc(C)c(O)c(C)c1C [1-o-hexyl-2,3,5-trimethyl-p-hydroquinone]"
  assigned.class: "zone 1"
- molecule: "Cc1cc(O)c(C)c(C)c1O [2,5,6-trimethyl-p-hydroquinone]"
  assigned.class: "zone 3"
- molecule: "Oc1c(F)c(F)c(O)c(F)c1F [tetrafluoro-p-hydroquinone]"
  assigned.class: "zone 1"
- molecule: "Oc1c(Cl)c(Cl)c(O)c(Cl)c1Cl [tetrachloro-p-hydroquinone]"
  assigned.class: "zone 2"
- molecule: "Cc1cc(O)cc(C)c1O [2,6-dimethyl-p-hydroquinone]"
  assigned.class: "zone 3"
- molecule: "Oc1cc(Cl)c(O)c(Cl)c1 [2,6-dichloro-p-hydroquinone]"
  assigned.class: "zone 2"
- molecule: "CC(C)(C)c1cc(O)c(C(C)(C)C)cc1O [2,5-di-t-butyl-p-hydroquinone]"
  assigned.class: "zone 2"
- molecule: "Oc1cc(Cl)c(O)cc1Cl [2,5-dichloro-p-hydroquinone]"
  assigned.class: "zone 2"
- molecule: "Oc1ccc(O)c(Br)c1 [2-bromo-p-hydroquinone]"
  assigned.class: "zone 2"
- molecule: "Oc1ccc(O)c(F)c1F [2,3-difluoro-p-hydroquinone]"
  assigned.class: "zone 2"
- molecule: "Oc1ccc(O)c(Cl)c1 [2-chloro-p-hydroquinone]"
  assigned.class: "zone 2"

====

- Test system: S. aureus ATCC 29213
- experiment: Disc diffusion assay (DDA)
- Type: cell-based, Staphylococcus aureus
- condition.details: Staphylococcus aureus, ATCC29213; S. aureus ATCC 29213; unsupplemented agar; 200 μg per disc (thymoquinone 50 μg, 2,6-dimethoxy-p-benzoquinone 100 μg); read-out: DDA (diameter of zone of inhibition)
Tick fulfilled if zone of inhibition at 200 µg/disc is 20 mm or greater. Tick not fulfilled if zone of inhibition at 200 µg/disc is less than 20 mm.

- molecule: "Cc1cc(O)c(C(C)C)cc1O [thymohydroquinone]"
  assigned.class: "fulfilled"
- molecule: "CC(C)(C)c1ccc(O)c(O)c1"
  assigned.class: "not fulfilled"
- molecule: "O=[N+]([O-])c1c(O)cccc1O"
  assigned.class: "not fulfilled"
- molecule: "COC1=C(OC)C(=O)C(C)=CC1=O"
  assigned.class: "fulfilled"
- molecule: "O=[N+]([O-])c1ccc(O)c(O)c1"
  assigned.class: "not fulfilled"
- molecule: "CC1=CC(=O)C(C(C)C)=CC1=O"
  assigned.class: "not fulfilled"

====

- System: P. acnes NCTC 737
- experiment: Supplemented disc diffusion assay
- Format: cell-based, Propionibacterium acnes
- condition.details: Cutibacterium acnes, NCTC737, 72 h, read-out: DDA + lipid

- cpd.smiles: "O=C1C=CC(=O)C(Cl)=C1"
  zone of inhibition at 200 µg/disc (mm): 31.4
- cpd.smiles: "O=C1C(Cl)=C(Cl)C(=O)C(Cl)=C1Cl"
  zone of inhibition at 200 µg/disc (mm): 12.7
- cpd.smiles: "Cc1cc(O)c(C)c(O)c1"
  zone of inhibition at 200 µg/disc (mm): 0
- cpd.smiles: "CC1=CC(=O)C=CC1=O"
  zone of inhibition at 200 µg/disc (mm): 48.9
- cpd.smiles: "CC1=C(Br)C(=O)C(C(C)C)=C(Br)C1=O"
  zone of inhibition at 200 µg/disc (mm): 34.7
- cpd.smiles: "COC1=CC(=O)C=C(OC)C1=O"
  zone of inhibition at 200 µg/disc (mm): 15.6
- cpd.smiles: "O=C1C(F)=C(F)C(=O)C(F)=C1F"
  zone of inhibition at 200 µg/disc (mm): 30.8

====

- Tested on: S. aureus ATCC 29213
- experiment: Disc diffusion assay (DDA)
- Type: cell-based, Staphylococcus aureus
- condition.details: Staphylococcus aureus, ATCC29213, read-out: DDA (diameter of zone of inhibition)

- cpd.smiles: "CC1=C(C)C(=O)C(C)=C(C)C1=O"
  zone of inhibition at 200 µg/disc, mm: 13.3
- cpd.smiles: "Cc1cc(O)c(C)c(O)c1"
  zone of inhibition at 200 µg/disc, mm: 16.7
- cpd.smiles: "CC1=CC(=O)C=CC1=O"
  zone of inhibition at 200 µg/disc, mm: 35.1
- cpd.smiles: "O=C1C=CC(=O)C(Cl)=C1"
  zone of inhibition at 200 µg/disc, mm: 25.3
- cpd.smiles: "COC1=CC(=O)C=C(OC)C1=O"
  zone of inhibition at 200 µg/disc, mm: 22.2
- cpd.smiles: "CC1=C(Br)C(=O)C(C(C)C)=C(Br)C1=O"
  zone of inhibition at 200 µg/disc, mm: 39.5

====

- Test system: P. acnes NCTC 737
- experiment: Supplemented disc diffusion assay
- Assay type: cell-based, Propionibacterium acnes
- condition.details: Cutibacterium acnes, NCTC737, 72 h, read-out: DDA + salt
Rule: zone of inhibition at 200 µg/disc under 30 mm gives f, otherwise t.

- cpd.smiles: "CC1=C(Br)C(=O)C(C(C)C)=C(Br)C1=O"
  tested.system: "P. acnes NCTC 737"
  assigned.class: "t"
- cpd.smiles: "O=C1C=CC(=O)C(Cl)=C1"
  tested.system: "P. acnes NCTC 737"
  assigned.class: "t"
- cpd.smiles: "COC1=CC(=O)C=C(OC)C1=O"
  tested.system: "P. acnes NCTC 737"
  assigned.class: "f"
- cpd.smiles: "CC1=CC(=O)C=CC1=O"
  tested.system: "P. acnes NCTC 737"
  assigned.class: "t"
- cpd.smiles: "O=C1C(F)=C(F)C(=O)C(F)=C1F"
  tested.system: "P. acnes NCTC 737"
  assigned.class: "t"
- cpd.smiles: "O=C1C(Cl)=C(Cl)C(=O)C(Cl)=C1Cl"
  tested.system: "P. acnes NCTC 737"
  assigned.class: "f"
- cpd.smiles: "Cc1cc(O)c(C)c(O)c1"
  tested.system: "P. acnes NCTC 737"
  assigned.class: "f"

====

Below, each of the compounds is paired with its reported zone of inhibition at 200 µg/disc value.
- Tested on: P. acnes NCTC 737
- experiment: Disc diffusion assay (DDA)
- Type: cell-based, Propionibacterium acnes
- condition.details: Cutibacterium acnes, NCTC737; P. acnes NCTC 737; unsupplemented agar; 200 μg per disc (2,6-dimethoxy-p-benzoquinone 100 μg); read-out: DDA (diameter of zone of inhibition)

- compound: "CC(C)(C)c1cc(C(C)(C)C)c(O)cc1O"
  tested.system: "P. acnes NCTC 737"
  zone of inhibition at 200 µg/disc: "36.6 mm"
- compound: "CC(C)(C)c1cc(O)c(O)c(C(C)(C)C)c1"
  tested.system: "P. acnes NCTC 737"
  zone of inhibition at 200 µg/disc: "35.9 mm"
- compound: "O=C1C=CC(=O)C=C1"
  tested.system: "P. acnes NCTC 737"
  zone of inhibition at 200 µg/disc: "24.9 mm"
- compound: "O=[N+]([O-])c1c(O)cccc1O"
  tested.system: "P. acnes NCTC 737"
  zone of inhibition at 200 µg/disc: "0 mm"
- compound: "Cc1cc(O)c(C(C)C)cc1O [thymohydroquinone]"
  tested.system: "P. acnes NCTC 737"
  zone of inhibition at 200 µg/disc: "9.82 mm"
- compound: "CC(C)(C)C1=CC(=O)C(=O)C(C(C)(C)C)=C1"
  tested.system: "P. acnes NCTC 737"
  zone of inhibition at 200 µg/disc: "31.8 mm"
- compound: "CC1=CC(=O)C(C(C)C)=CC1=O"
  tested.system: "P. acnes NCTC 737"
  zone of inhibition at 200 µg/disc: "27.5 mm"
- compound: "CC1=CC(=O)C(Cl)=CC1=O"
  tested.system: "P. acnes NCTC 737"
  zone of inhibition at 200 µg/disc: "38.9 mm"
- compound: "CC(C)(C)c1cc(O)ccc1O [TBHQ, 2-t-butyl hydroquinone]"
  tested.system: "P. acnes NCTC 737"
  zone of inhibition at 200 µg/disc: "9.95 mm"
- compound: "CC(C)(C)C1=CC(=O)C=CC1=O"
  tested.system: "P. acnes NCTC 737"
  zone of inhibition at 200 µg/disc: "60.8 mm"
- compound: "COC1=C(OC)C(=O)C(C)=CC1=O"
  tested.system: "P. acnes NCTC 737"
  zone of inhibition at 200 µg/disc: "33.4 mm"

====

Reported MIC values for a set of compounds
- System: P. acnes NCTC 737
- experiment: MIC assay
- Type: cell-based, Propionibacterium acnes
- condition.details: Cutibacterium acnes, NCTC737; P. acnes NCTC 737; Wilkins-Chalgren broth pH 6.0, anaerobic, 37° C., 72 hours; read-out: MIC

- compound: "CC(C)(C)C1=CC(=O)C(=O)C(C(C)(C)C)=C1"
  MIC [µg/mL]: 15.6
- compound: "CC(C)(C)c1cc(O)c(O)c(C(C)(C)C)c1"
  MIC [µg/mL]: 7.8
- compound: "Cc1cc(O)c(C(C)C)cc1O [thymohydroquinone]"
  MIC [µg/mL]: 31.2
- compound: "O=[N+]([O-])c1c(O)cccc1O"
  MIC [µg/mL]: 125
- compound: "CC(C)(C)c1cc(C(C)(C)C)c(O)cc1O"
  MIC [µg/mL]: 7.8
- compound: "CC1=CC(=O)C(Cl)=CC1=O"
  MIC [µg/mL]: 15.6
- compound: "CC(C)(C)C1=CC(=O)C=CC1=O"
  MIC [µg/mL]: 7.8
- compound: "COC1=C(OC)C(=O)C(C)=CC1=O"
  MIC [µg/mL]: 15.6
